# target_system: ROCK2 (Homo sapiens, UniProt O75116)
# Sequence (O75116 whole entry, species assumed): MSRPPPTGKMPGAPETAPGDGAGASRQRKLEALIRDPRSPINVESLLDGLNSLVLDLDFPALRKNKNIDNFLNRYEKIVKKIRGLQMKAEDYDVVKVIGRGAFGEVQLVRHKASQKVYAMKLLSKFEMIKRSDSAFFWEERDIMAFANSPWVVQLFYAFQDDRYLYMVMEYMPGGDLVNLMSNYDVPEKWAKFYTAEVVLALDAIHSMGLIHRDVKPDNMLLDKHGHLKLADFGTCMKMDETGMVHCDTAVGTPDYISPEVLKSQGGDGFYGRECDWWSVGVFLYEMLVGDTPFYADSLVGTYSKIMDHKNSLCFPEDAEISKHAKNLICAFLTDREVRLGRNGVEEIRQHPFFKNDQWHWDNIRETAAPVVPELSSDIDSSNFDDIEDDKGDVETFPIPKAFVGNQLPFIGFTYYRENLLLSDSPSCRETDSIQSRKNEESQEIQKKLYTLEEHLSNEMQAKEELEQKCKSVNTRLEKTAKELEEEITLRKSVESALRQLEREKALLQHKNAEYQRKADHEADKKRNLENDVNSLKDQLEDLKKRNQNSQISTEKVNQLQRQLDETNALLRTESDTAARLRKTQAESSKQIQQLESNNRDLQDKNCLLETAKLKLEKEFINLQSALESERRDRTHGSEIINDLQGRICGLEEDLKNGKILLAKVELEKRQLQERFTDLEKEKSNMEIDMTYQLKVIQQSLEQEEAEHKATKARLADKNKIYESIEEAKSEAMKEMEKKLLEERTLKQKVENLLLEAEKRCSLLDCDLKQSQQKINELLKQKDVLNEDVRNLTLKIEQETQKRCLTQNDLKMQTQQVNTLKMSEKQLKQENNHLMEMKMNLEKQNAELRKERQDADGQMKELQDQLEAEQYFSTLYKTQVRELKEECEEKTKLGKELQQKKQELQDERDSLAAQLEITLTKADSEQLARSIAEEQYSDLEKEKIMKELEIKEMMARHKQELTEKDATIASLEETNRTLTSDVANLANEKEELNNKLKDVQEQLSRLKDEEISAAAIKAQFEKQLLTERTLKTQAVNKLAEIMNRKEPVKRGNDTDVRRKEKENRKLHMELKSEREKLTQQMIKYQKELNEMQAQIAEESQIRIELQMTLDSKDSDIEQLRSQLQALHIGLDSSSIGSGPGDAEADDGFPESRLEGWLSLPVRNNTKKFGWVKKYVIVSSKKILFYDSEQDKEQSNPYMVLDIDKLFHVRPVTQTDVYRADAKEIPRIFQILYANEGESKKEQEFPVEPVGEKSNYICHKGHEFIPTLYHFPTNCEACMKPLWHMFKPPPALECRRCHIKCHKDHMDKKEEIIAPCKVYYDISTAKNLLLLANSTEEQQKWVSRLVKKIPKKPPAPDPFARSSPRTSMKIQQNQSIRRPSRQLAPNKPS
# protocol_text: ROCK2 kinase inhibition assay (LABCHIP 3000 Reader, FITC peptide substrate);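 also: rho kinase reaction read by separating phosphorylated from unphosphorylated peptide on chip, with inhibition of kinase activity computed per concentration across a dose-response series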
Counter-ions that a name gives are not always drawn.
experimental_endpoint: IC50

Asked: Lab note: record IC50 of [H][C@]1(Oc2ncccc2C(N)=O)C[C@@]2(C[C@H](NC(=O)c3nn(C(C)(C)C#N)c4cc(-c5cnn(C(F)F)c5)ccc34)C2)C1 (stereo partly shown) [Example 407, TFA] tested on ROCK2 (Homo sapiens, UniProt O75116).
Given back: < 0.005 µM

Asked: Answer briefly: IC50 recorded on ROCK2 (Homo sapiens, UniProt O75116) for Cn1nc(C2CC2)cc1C(=O)N[C@H]1CC2(C1)C[C@H](Oc1ncccc1C(N)=O)C2 (stereo partly shown)
Given back: 0.05 to 0.25 µM

Asked: Provide IC50, recorded with ROCK2 (Homo sapiens, UniProt O75116), of CC(C)(O)COc1ccc2c(C(=O)NC3CC4(C3)CC(Oc3cc(-c5ccc(C(C)(C)O)nc5)ccc3C(N)=O)C4)cnn2c1 (stereo not shown)
Given back: 0.05 to 0.25 µM

---

# target_system: ROCK2 (Homo sapiens)
# protocol_text: ROCK2 kinase inhibition assay (LABCHIP 3000 Reader, FITC peptide substrate)
# study_conditions: read-out: ROCK2 Activity (ROCK2 IC50); 5 μM ATP, 1.5 μM peptide substrate, pH 7.5
pIC50: −log10 of the molar value. Structures can show the parent of a compound that is named as a salt.
experimental_endpoint: pIC50

Cn1cc(-c2ccc3c(C(=O)NC4CC5(C4)CC(Oc4ncccc4C(N)=O)C5)nn(CC4(O)CC(F)(F)C4)c3c2)cn1 (stereo not shown) [Example 404, TFA]: 7.30 to 8.30
NC(=O)c1cccnc1OC1CC2(CC(NC(=O)c3nc(C(F)F)n4cc(OCc5ccccc5)ccc34)C2)C1 (stereo not shown): > 8.30

Asked: Tell me its pIC50 given NC(=O)c1cccnc1OC1CC2(CC(NC(=O)c3nc(C(F)(F)F)n4cc(OS(=O)(=O)C(F)(F)F)ccc34)C2)C1 (stereo not shown) as the entry.
Given back: 7.30 to 8.30

Asked: Provide only the value of recorded pIC50 for CC(C)(O)CCOc1ccc2c(C(=O)NC3CC4(C3)CC(Oc3ncccc3C(N)=O)C4)nc(C(F)F)n2c1 (stereo not shown)
Given back: > 8.30

Asked: Retrieve pIC50 measured for Cc1nc(C(=O)NC2CC3(C2)CC(Oc2ncccc2C(N)=O)C3)c2ccc(Br)cn12 (stereo not shown) and print it.
Given back: 6.60 to 7.30

Asked: Tell me its pIC50 given NC(=O)c1cccnc1OC1CC2(CC(NC(=O)c3cc(C(F)(F)F)cc4c3NC(=O)OC4)C2)C1 (stereo not shown) as the entry.
Given back: 7.30 to 8.30

---

# target_system: UniProt O75116
# protocol_text: ROCK2 kinase inhibition assay (LABCHIP 3000 Reader, FITC peptide substrate)
Structures can show the parent of a compound that is named as a salt.
Documented IC50 across a set of compounds

Some solved entries appear below for comparison.
[H][C@]1(Oc2ncccc2C(N)=O)C[C@@]2(C[C@H](NC(=O)c3cn4nc(OCC(F)(F)F)ccc4n3)C2)C1 (some centres unmarked): 50 to 250 nM
NC(=O)c1cccnc1OC1CC2(CC(NC(=O)c3cnn4cc(OCCC(F)(F)F)ccc34)C2)C1 (centres unmarked): 5 to 50 nM
CC(C)(C)c1ccnc(C(=O)N[C@H]2CC3(C2)C[C@H](Oc2ncccc2C(N)=O)C3)c1 (some centres unmarked): 5 to 50 nM
CC(C)(O)COc1ccc2c(C(=O)NC3CC4(C3)CC(Oc3cc(-c5ccc(C(N)=O)c(F)c5)ccc3C(N)=O)C4)cnn2c1 (centres unmarked): 5 to 50 nM

Asked: Answer with reported IC50 of NC(=O)c1cccnc1O[C@H]1CC2(C[C@H](NC(=O)c3cnn4cc(N5CC[C@@H](F)C5)ccc34)C2)C1 (some centres unmarked)
Given back: < 5 nM

Asked: Name the recorded IC50 of the compound listed here: NC(=O)c1cccnc1OC1CC2(CC(NC(=O)c3cnn4cc(OC5CCOCC5)ccc34)C2)C1 (centres unmarked)
Given back: 5 to 50 nM

Asked: Tell me its IC50 given CC(C)(O)COc1ccc2c(C(=O)NC3CC4(C3)CC(Oc3cc(-c5cc(F)c(F)c(F)c5)ccc3C(N)=O)C4)cnn2c1 (centres unmarked) as the entry.
Given back: 50 to 250 nM

Asked: Supply recorded IC50 for Cc1nc(-c2cccnc2)sc1C(=O)N[C@H]1CC2(C1)C[C@H](Oc1ncccc1C(N)=O)C2 (some centres unmarked) here.
Given back: 250 to 2500 nM

Asked: Output IC50 of COc1cc(C(=O)NC2CC3(C2)CC(Oc2ccccc2C(N)=O)C3)ccc1-c1cn[nH]c1 (centres unmarked)
Given back: 50 to 250 nM

Asked: Specify IC50 for CNC(=O)c1ccc(-c2ncc(C(=O)NC3CC4(C3)CC(Oc3ncccc3C(N)=O)C4)s2)cc1F (centres unmarked) [Example 419, TFA] and stop.
Given back: 50 to 250 nM

Asked: State its IC50 for this compound: COc1ccc2c(c1)CCN2C(=O)N[C@H]1CC2(C1)C[C@H](Oc1ccccc1C(N)=O)C2 (some centres unmarked)
Given back: 5 to 50 nM

Asked: Answer with the recorded IC50 of CC(C)(O)COc1ccc2c(C(=O)NC3CC4(C3)CC(Oc3cc(-c5ccccc5F)ccc3C(N)=O)C4)cnn2c1 (centres unmarked) only.
Given back: 5 to 50 nM

Asked: Query IC50 for NC(=O)c1cccnc1O[C@H]1CC2(C[C@H](NC(=O)c3nn(C(F)F)c4cc(Br)ccc34)C2)C1 (some centres unmarked)
Given back: 5 to 50 nM

Asked: Note down IC50 recorded for COc1ccc(OC2CC3(CC(NC(=O)c4cnn5c(C6CC6)c(OCC(C)(C)O)ccc45)C3)C2)c(C(N)=O)c1 (centres unmarked)
Given back: 5 to 50 nM

Data origin, for the record: patent US10829501B2
